# PROTOCOL_SUMMARY: soluble on expression in E. coli; label from the status in PepcDB or PDB records

>  <SEQUENCE_RECORD>
MIIRPERQGDEEAIARVTEDAFRNVEHRSGTEQLIVARLRDAGALTVSLVAEDSEGIIGHVGFSPVTLSSGETGWFCLAPLSVTPERQGEGVGSRLARDGLAVLERLSAAGCVVVGDPAYYGRFGFRPVAGLSAEGIPDEYFTVLRLHGGTPSGIVGFHPGFDGDNA

>  <soluble on expression in E. coli>
not soluble

$$$$
>  <SEQUENCE_RECORD>
MGSDKIHHHHHHMSELKLPKDDRSIEVYRLSGTPVAVEKRSAADFNRVAFAAAHVVADPFADNDPWLTPAIDWEATLRFRHRLWDLGLGVAEAMDTAQRGMGLAWPQAQELISRSLKEAASRKDALIACGVGTDHLDSGGYDLNQIIDSYLEQLDFVQGEGGRVILMASRALAAAARSPDDYLKAYARVLSRAEQKVVIHWLGEMFDPALKGYWGSGDHMAAMETCLAMIEENAEKIDGIKISLLSKDKEIVMRRRLPAGVRMYTGDDFNYAELIAGDEQGHSDALLGIFDAIAPAASKALASLKRGADNEFFDILEPTVALSRHIFKAPTRFYKTGVVFLAYLNGLQDHFTMVGGQESTRSTQHFTELFRLADKANVLAEPDLATHRMKAFLAVRGIG

>  <soluble on expression in E. coli>
not soluble

$$$$

====

# PROTOCOL_SUMMARY: soluble on expression in E. coli; label from the status in PepcDB or PDB records
OBSERVATION_TYPE: soluble on expression in E. coli

>  <SEQUENCE_RECORD>
MTCFKIRLSKQPLKGRTMNKPFITQAQLALYKYQPSSKYYGKTMAYTFASELLDYSKVNKFIIHEEIQCFLNRRISNNIWKIYFSDESVAYIKILELQDDYSRGIEIKTFDFNPNVGDVFG

>  <soluble on expression in E. coli>
not soluble

$$$$
>  <SEQUENCE_RECORD>
MGSDKIHHHHHHMSIICLALAGCAVEKTEVRTPTFDEQLRPAPPSYANGSIWQASTTGLAVDHKARSRGDIITVLIVEQASASKEATTDTERKAEVSASVPYLMGLEKSSTLFSKLTNANPNNLLGASTNSKYEGSGATTRKENLLATMTAKITDVLPNGNFLIEGRRNVKVNNEDQILVLQGTIRPRDVSPDNTISSTMIADARISYTGNGVISDRQRPGWLMNILDYIWPF

>  <soluble on expression in E. coli>
not soluble

$$$$
>  <SEQUENCE_RECORD>
MSLGEKHHMVLNRDQGITTRFSPQQKRLQLSSPKPYLLFFFTASCGACKEAIPYLNAIEEQWGERFEVIGVLGGSRGIKSDLEFLKRHSIRFKVLSDPSSSDYLSRAVGGVMGVPLFFFFDETGAPKEHFLGLVPQRVLEEEVRSLLEGHHHHHH

>  <soluble on expression in E. coli>
soluble

$$$$
>  <SEQUENCE_RECORD>
MVQIIFDSKTGNVQRFVNKTGFQQIRKVDEMDHVDTPFVLVTYTTNFGQVPASTQSFLEKYAHLLLGVAASGNKVWGDNFAKSADTISRQYQVPILHKFELSGTSKDVELFTQEVERVVTKSSAKMDPVK

>  <soluble on expression in E. coli>
soluble

$$$$
>  <SEQUENCE_RECORD>
MVGLSTGSWVKVLTSMPNLESITVVELNPAYVQLASSYPAMADLLKDNRVNIITDDGRRWLNKNPDQKFDLILMNTTFHWRNYATNLLSQQFLTVTKQHLTDNGFIYFNTTDALDAYKTSQAVFPHVYAYENMSLASLKPIAVPTTPEVHRALANLKWHDGRHIFNSPAEIAEGTARIVNTPLIPYKDIDFSPLKRPAKIITDTNMITEYKYGRLNTVINK

>  <soluble on expression in E. coli>
not soluble

$$$$
>  <SEQUENCE_RECORD>
MSLRFVFDIDGTLCFDGRLIDQTIIDTLLQLQHDGHELIFASARPIRDLLPVLPSVFHQHTLIGANGAMISQQSKISVIKPIHTDTYHHILKIIQKYELDYIIDDDWNYAAQLDAENAIFERLDPHKLASCIDVANIDTPIKIILLNIDPAQITTILDELNKYHQELEMIHHSNEYNIDITAQNINKYTALQYIFDADVKYIAFGNDHNDIFMLQHASSGYIIGPSEAYTHAILKLDKIKHINNNTQAICKVLKSYKEGHHHHHH

>  <soluble on expression in E. coli>
soluble

$$$$
>  <SEQUENCE_RECORD>
MGSDKIHHHHHHMQTGKAISIPSILKVGNGTLNKIGEYLKSEELTSVVIFMGNGLIDMFGDTIMKSLTDAGITVLEYSELDTVEIDDIITLAFDIPNKVKAVVSVGGGKVIDAGKYAAFLRNMPFISVPTSSSSDGFSSASASLLVHGKRTSVPAKLAHGIIVDTQVIRTAPEKFIYSGIGDMVSKITALYDWIFEEAHGAGVVNDFAVMVAKKAVNSFVRTPYESIKDELFLKELVDSLAMSGIANEIAGSSAPTSGSEHLISHALDKILEHPQLHGIQVGIATYIMSVVQNHRYVRVCTVLKRTGFFDYAATLGMRKQDFLDAIDMAPSMKPFRHTYLHEKEYRDAAKKLVLEDDILNKILV

>  <soluble on expression in E. coli>
not soluble

$$$$
>  <SEQUENCE_RECORD>
MNYDAKQPPANLADSIQQKETVQALYDLLDKNMADFDASLAGMDKAETADLKEVSDTREIYDFIRYHYGEFGQREAELLLRMENPLNFIVENWPCHNLETLAMNYLADKTIKEPNKKEMPQSGHDTKDAEKPSILKQIKTNQGQIKANRQETRQQSITAERPRDGEAR

>  <soluble on expression in E. coli>
not soluble

$$$$

# return recorded soluble on expression in E. coli for input `MAHHHHHHMGTLEAQTQGPGSMALNSAVILAGCGHMDGSEIREAVLVMLELDRHNVNFKCFAPNKNQKQVVDHKKKESVGEVRNILVESARIARGSVYDIEQIRVEEFDMLVIPGGYGVAKNFSNLFDEDKENDYILPEFKNAVREFYNAKKPIGAVCISPAVVVALLKDIAKVKVTIGEDSNGLIDKMGGVHVDCPTIKSVKDDVNRIFSCSAYMRNDSLYNVYLGIQDMISSMVNYLKSK` soluble

# return recorded soluble on expression in E. coli for input `MRGGPVNSHDVTDEQWEGLAQVVPLRGRDAWPSAVGHRSIPEAQTEARRRFVVLRVNIFADARDVAETLMRGIPVLLDLTSAETEVAKRVLDFSTGVVFGLASGMHRVDRNVFLLTPPGTEVQGLMEGVGVPGILEHHHHHH` not soluble

# return recorded soluble on expression in E. coli for input `IHHLPPVKAPLQTKKKIMKHCFLCGKKTGLATSFECRCGNNFCASHRYAEAHGCNYDYKSAGRRYLEEANPV` soluble
